Where do these numbers come from? They come from patent EP4350345A2.

- assayed_system: purified interference factor(s) from serum of Donor B
- protocol_summary: SPR, interference factor on CM5 chip
metric_name: binding as % of Reference Sequence (=100%)

1) Nanobody or Nanobody construct of SEQ ID NO: 38 (VHH) EVQLVESGGGLVQPGGSLRLSCAASGFTFSSYAMSWVRQAPGKGLEWVSGIKSSGDSTRYAGSVKGRFTISRDNAKNTLYLQMNSLRPEDTAVYYCAKSRVSRTGLYTYDNRGQGTLVTVSSGGGGSGGGGSGGGGSGGGGSEVQLVESGGGLVQPGGSLRLSCAASGRTFNNYAMGWFRQAPGKEREFVAAITRSGVRSGVSAIYGDSVKDRFTISRDNAKNTLYLQMNSLRPEDTAVYYCAASAIGSGALRRFEYDYSGQGTLVTVSSA	25
